Values compiled from the supplement of paper PMC10567573.

B1: ZNF75A (parent)
chain: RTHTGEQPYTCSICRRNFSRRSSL

# Variants of: B1
# assay-explanation: protein stability index of a GFP-peptide fusion (GPS, HEK-293T) (PSI 1-6); higher = more stable;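 note: lentivirally expressed fusions sorted by FACS into six bins by GFP to DsRed ratio, PSI derived from sequencing read proportions per bin multiplied by bin number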
# settings: c terminus: a fixed tail appended
protein stability index of 3 or higher: YES. Under 3: NO.

Record S19G ; criterion: protein stability index no lower than 3. Met? NO

Please tell me: is the variant R21M at or over 3 in terms of protein stability index? NO

Would you say R20G shows protein stability index at minimum 3? YES

Is protein stability index for S22K at or above 3? YES

Could you verify whether the entry C14V shows protein stability index of no less than 3? YES

Does protein stability index meet or surpass 3 for R20N ? NO

Entry Y9E : is its protein stability index no less than 3? YES

Reported protein stability index at or above 3? R1H YES

Would you say S12H shows protein stability index at minimum 3? YES

Would you say H3R shows protein stability index at minimum 3? YES

// inclusive: protein stability index at least 3? input: F18P NO

# check: protein stability index of N17K is greater than or equal to 3 YES

Item T4Q with protein stability index of 3 or above? NO

Is the recorded value of protein stability index equal to or greater than 3 for this variant? T2F YES

Please indicate if the recorded protein stability index for H3D meets or exceeds 3. YES

Answer whether protein stability index of R20C is greater than or equal to 3. NO

Entry S23R : is its protein stability index no less than 3? NO

hey, is protein stability index for this one >= 3? R16V NO

Test whether the variant R16G records protein stability index of 3 or higher. NO

Could you verify whether the entry Y9G shows protein stability index of no less than 3? YES

Has R1G a recorded protein stability index greater than or equal to 3? YES

Is it the case that N17D has protein stability index reaching or exceeding 3? NO

Tell me whether protein stability index is at least 3 here: H3W NO

Is protein stability index at least 3? Consider S22N NO

Check the entry P8T : does protein stability index equal or exceed 3? YES

Identify whether the reported protein stability index of the following variant is 3 or greater: I13D NO

Decide: is the reported value of protein stability index for T2S equal to or greater than 3? NO

Is protein stability index for P8R at or above 3? NO

Check this variant for protein stability index at or above 3: P8Q NO

Given the entry S12N , answer whether its protein stability index meets or surpasses 3. NO

Form field: protein stability index at least 3? Entry: C14A YES

Given R15D , state whether its protein stability index is at least 3. NO

# check: protein stability index of S19A is greater than or equal to 3 NO
